These entries and their values trace back to the RepoRT retention time repository (doi:10.1016/j.jchromb.2020.122105).

# Method: RP, Waters ACQUITY UPLC BEH C18, 100 × 2.1 mm, 1.7 µm, 0.1 mL/min, estimated dead time 2.2 min; A: water + 0.045% formic acid + 0.11% ammonium hydroxide, pH 7; B: methanol; gradient (min/%B) 0/5 5/5 25/95 25.1/100 35/100 35.1/5 45/5
# Condition Details: stereoisomer not certain
Listed here are compounds together with their documented log10 of LC retention time.
Quantity Name: log10 of LC retention time (log10 of the value in min)

{"Compound": "N[C@@H](Cc1cc(I)c(O)c(I)c1)C(=O)O [3,5-DIIODO-L-TYROSINE]", "log10 of LC retention time": 1.03}
{"Compound": "CC1NC(=O)NC1CCCCCC(=O)O (stereo not given) [DETHIOBIOTIN]", "log10 of LC retention time": 1.10}
{"Compound": "NC(=O)Cc1c[nH]c2ccccc12 [INDOLE-3-ACETAMIDE]", "log10 of LC retention time": 1.19}
{"Compound": "CC(C)=CCCC(C)=CCCC(C)=CCCC(C)=CCC1=C(C)C(=O)c2ccccc2C1=O [MENAQUINONE]", "log10 of LC retention time": 1.54}
{"Compound": "O=c1cccc[nH]1 [2-HYDROXYPYRIDINE]", "log10 of LC retention time": 0.77}
{"Compound": "N[C@H](CO)Cc1cnc[nH]1 [L-HISTIDINOL]", "log10 of LC retention time": 0.52}
{"Compound": "Cc1cc2nc[nH]c2cc1C [DIMETHYLBENZIMIDAZOLE]", "log10 of LC retention time": 1.31}
{"Compound": "C=Cc1c(C)c2cc3[nH]c(cc4nc(cc5nc(cc1[nH]2)C(C)=C5CCC(=O)O)C(CCC(=O)O)=C4C)c(C)c3C=C [PROTOPORPHYRIN]", "log10 of LC retention time": 1.47}
{"Compound": "NCCc1cnc[nH]1 [HISTAMINE]", "log10 of LC retention time": 0.50}
{"Compound": "COc1ccc2[nH]cc(CCNC(C)=O)c2c1 [MELATONIN]", "log10 of LC retention time": 1.25}
